Values from the Immune Epitope Database (IEDB)

target: HLA-A*01:01
runDescription: IEDB peptide-MHC binding, purified MHC/direct/fluorescence; filed as Kd, often an IC50 or EC50 that approximates it; bounds were set here for any values at or beyond the usual limits of such assays
statedConditions: source organism: Camelpox virus M-96
pKd: −log10 of the molar value.
readoutKind: pKd

>>> result("ALYSYASAK")
"≤ 4.70"

----------
target: HLA-A*26:01
runDescription: IEDB peptide-MHC binding, purified MHC/direct/fluorescence; filed as Kd, often an IC50 or EC50 that approximates it; bounds were set here for any values at or beyond the usual limits of such assays
statedConditions: source organism: Escherichia coli O157:H7 str. EC4486
readoutKind: Kd

>>> result("YAMMSLFDM")
"≥ 20 µM"
